Data provenance is patent EP4768484A1.

# target: Ba/F3 BCR-ABL1 V468F (Homo sapiens, UniProt P00519+P11274, V468F)
# Construct: BCR (N-terminal fusion partner of the oncoprotein)
# Sequence (P00519 28-1130 V468F limits assumed, one chain of several): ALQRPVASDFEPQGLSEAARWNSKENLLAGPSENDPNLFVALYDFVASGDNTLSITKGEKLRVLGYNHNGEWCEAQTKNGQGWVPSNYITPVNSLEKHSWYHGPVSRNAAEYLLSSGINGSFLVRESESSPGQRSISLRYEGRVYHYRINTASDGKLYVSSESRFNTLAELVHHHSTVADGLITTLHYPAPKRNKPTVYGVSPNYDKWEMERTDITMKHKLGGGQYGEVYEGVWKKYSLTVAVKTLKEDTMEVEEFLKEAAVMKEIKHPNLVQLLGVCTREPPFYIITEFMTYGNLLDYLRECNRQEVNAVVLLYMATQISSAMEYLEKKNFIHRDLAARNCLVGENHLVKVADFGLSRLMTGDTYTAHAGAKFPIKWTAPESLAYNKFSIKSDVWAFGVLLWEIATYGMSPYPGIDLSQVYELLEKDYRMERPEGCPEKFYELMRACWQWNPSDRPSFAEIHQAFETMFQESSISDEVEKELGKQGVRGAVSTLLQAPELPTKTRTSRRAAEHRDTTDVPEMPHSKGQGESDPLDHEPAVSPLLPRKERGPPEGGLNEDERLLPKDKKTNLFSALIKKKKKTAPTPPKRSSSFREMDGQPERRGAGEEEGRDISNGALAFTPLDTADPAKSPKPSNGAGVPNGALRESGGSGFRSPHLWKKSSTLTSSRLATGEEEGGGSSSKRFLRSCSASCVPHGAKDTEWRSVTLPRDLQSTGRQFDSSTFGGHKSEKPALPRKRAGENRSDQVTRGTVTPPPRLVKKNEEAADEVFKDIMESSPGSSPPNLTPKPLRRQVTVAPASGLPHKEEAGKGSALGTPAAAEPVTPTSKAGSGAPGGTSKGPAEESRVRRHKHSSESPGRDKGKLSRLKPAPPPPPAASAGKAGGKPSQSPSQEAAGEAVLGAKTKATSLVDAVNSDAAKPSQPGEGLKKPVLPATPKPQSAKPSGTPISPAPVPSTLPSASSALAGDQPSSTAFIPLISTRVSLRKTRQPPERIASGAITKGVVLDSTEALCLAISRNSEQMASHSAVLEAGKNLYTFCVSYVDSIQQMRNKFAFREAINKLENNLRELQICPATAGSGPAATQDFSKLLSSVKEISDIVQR
# measurement.notes: Cell growth inhibitory activity assay (CellTiter-Glo), Ba/F3 BCR-ABL1 V468F cells
# recorded.conditions: 72 h, CTG cell viability
IC50 for assorted compounds

[
  {
    "compound.string": "C[C@@H]1COCc2nc3cc(C(=O)Nc4ccc(OC(F)(F)Cl)cc4)cc(-c4cnc5c(c4)-c4nn(CC(F)(F)F)cc4C5)c3n21",
    "endpoint.value": "5 to 50 nM"
  }
]

Q: Specify IC50 for `C[C@@H]1COCc2nc3cc(C(=O)Nc4ccc(OC(F)(F)Cl)cc4)cc(-c4cnc5c(c4)-c4nn(-c6ncccn6)cc4C5)c3n21` , system Ba/F3 BCR-ABL1 V468F (Homo sapiens, UniProt P00519+P11274, V468F).
Ans: 5 to 50 nM

Q: Specify IC50 for `C[C@@H]1COCc2nc3cc(C(=O)Nc4ccc(OC(F)(F)Cl)cc4)cc(-c4cnc5c(c4)-c4nn(C6COC6)cc4C5)c3n21` , system Ba/F3 BCR-ABL1 V468F (Homo sapiens, UniProt P00519+P11274, V468F).
Ans: 5 to 50 nM

Q: Specify IC50 for `C[C@@H]1COCc2nc3cc(C(=O)Nc4ccc(OC(F)(F)Cl)cc4)cc(-c4cnc5c(c4)-c4c(cnn4-c4nccc(C#N)n4)C5)c3n21` , system Ba/F3 BCR-ABL1 V468F (Homo sapiens, UniProt P00519+P11274, V468F).
Ans: > 1000 nM

Q: Specify IC50 for `CCn1cc2c(n1)-c1cc(-c3cc(C(=O)Nc4ccc(OC(F)(F)Cl)cc4)cc4nc5n(c34)[C@H](C)COC5)cnc1C2` , system Ba/F3 BCR-ABL1 V468F (Homo sapiens, UniProt P00519+P11274, V468F).
Ans: 5 to 50 nM

Q: Specify IC50 for `[2H]C([2H])([2H])N1Cc2ncc(-c3cc(C(=O)Nc4ccc(OC(F)(F)Cl)cc4)cc4nc5n(c34)[C@H](C)COC5)cc2C1=O` , system Ba/F3 BCR-ABL1 V468F (Homo sapiens, UniProt P00519+P11274, V468F).
Ans: 5 to 50 nM
